SYSTEM_UNDER_TEST: UniProt:G5EF15
Sequence (G5EF15 whole entry): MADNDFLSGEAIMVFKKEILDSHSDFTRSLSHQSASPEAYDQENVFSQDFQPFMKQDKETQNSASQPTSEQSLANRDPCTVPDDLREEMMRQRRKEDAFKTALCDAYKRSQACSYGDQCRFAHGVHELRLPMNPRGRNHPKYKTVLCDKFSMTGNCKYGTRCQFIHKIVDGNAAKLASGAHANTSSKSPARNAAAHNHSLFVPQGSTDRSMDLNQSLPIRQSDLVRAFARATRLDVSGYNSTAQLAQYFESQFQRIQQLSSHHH
ASSAY_SUMMARY: inhibitors of POS-1/mex-3 RNA binding, dose response, biochemical, fluorescence polarization (AID 1964);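 further: purified POS-1 fused to maltose binding protein made in E. coli; potency of compounds blocking POS-1 binding to fluorescent RNA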
Active and inactive are the calls of the source. No stated cut-off is given here; in the data, actives have a measured EC50 and inactives only a lower limit.
So I've got a bunch of compounds here, and I need their EC50 values.

Input line: Look up EC50: CCOc1ccc(N/C(=C(/C(Cl)=C(Cl)Cl)[N+](=O)[O-])n2cncn2)cc1
Output line: 46.9 µM (active)

Input line: Look up EC50: CCCN1C(=O)/C(=C/c2ccc(C)o2)S/C1=N/c1ccc(OC)cc1
Output line: 44.6 µM (active)

Input line: Look up EC50: C/C(=N\Nc1ccc([N+](=O)[O-])cc1[N+](=O)[O-])c1cc2c(ccc3ccccc32)oc1=O
Output line: > 300 µM (not active)

Input line: Look up EC50: CCC1(c2ccccc2)NC(=O)N(CC(=O)NCc2ccc(F)cc2)C1=O (stereo unspecified)
Output line: > 300 µM (not active)

Input line: Look up EC50: CC1=C(C#N)C(=O)OC(C)(C)C1
Output line: 10.8 µM (active)

Input line: Look up EC50: CCCCC1=CC2=CC(=O)C(C)(OC(=O)CCC(=O)OC)C(=O)C2=CO1 (stereo unspecified)
Output line: 30 µM (active)

Input line: Look up EC50: O=C(/N=C1\SC2CS(=O)(=O)CC2N1c1ccccc1)C1CC1 (stereo unspecified)
Output line: > 300 µM (not active)

Input line: Look up EC50: NC(=O)CC(NC(=O)Cc1ccc(Cl)cc1)c1ccc(NC2CCCCCC2)c([N+](=O)[O-])c1 (stereo unspecified)
Output line: > 300 µM (not active)

Input line: Look up EC50: O=C(/C=C/N1CCOCC1)c1ccc(-c2ccccc2)cc1
Output line: > 300 µM (not active)

Input line: Look up EC50: O=C(CN1C(=O)C2CC=C(Cl)CC2C1=O)NCc1ccccc1 (stereo unspecified)
Output line: 34.1 µM (active)

Input line: Look up EC50: O=C(c1ccco1)N1CCN(c2ncnc3c(-c4ccc(Cl)cc4)nsc23)CC1
Output line: > 300 µM (not active)
